Catalogue of TGI readings, one per entry.
System: EKVX NSCLC
test protocol: NCI tumour cell line growth inhibition, 48 h

In the examples that follow, each entry is paired with its recorded TGI.
* O=C(O)C(CS)NCc1c2ccccc2[n+]([O-])c2ccccc12 (stereo unspecified) | > 100 µM
* CSC(SC)=C1C(=O)NN=C1C | > 100 µM
* C[C@@H](c1ccc2nccn2c1)n1nnc2ncc(-c3cnn(C)c3)nc21 | > 100 µM
* CCCCCCCCCCCCCCCC(=O)ON1C(=S)NC(C)(c2ccccc2)C1=S (stereo unspecified) | > 100 µM
* O=C(c1ccccc1)c1nn(-c2ccc(Cl)cc2)c2nc3nc(-c4ccccc4)cc(=O)n3nc12 | > 100 µM

Form field TGI, entry Cc1cc(C)nc(NS(=O)(=O)c2ccc(Nc3c4ccccc4nc4c(C(=O)Nc5ccc(S(N)(=O)=O)cc5)cccc34)cc2)n1 : 98.2 µM

Form field TGI, entry CC(C)C1CC=NN1C(=O)OC(C)(C)C (stereo unspecified) : > 100 µM

Form field TGI, entry Cn1nc(-c2ccccc2NC(=O)C(F)(F)F)c(=O)n(C)c1=S : 86.5 µM

Form field TGI, entry O=C(c1cccs1)c1c(C(F)(F)F)n([O-])c2ccc(C(F)(F)F)cc2[n+]1=O : 0.529 µM

---

System: SK-MEL-2 melanoma
test protocol: NCI tumour cell line growth inhibition, 48 h
readout type: TGI (µM)
Please reply with the bare figure in µM and do not write the unit itself.

In the examples that follow, each entry is paired with its recorded TGI.
• Cc1cc2nc(N3C(=O)/C(=C/c4cccc([N+](=O)[O-])c4)N=C3c3ccccc3)sc2cc1C = 60
• CC(=O)OCCC1c2ccccc2-n2nc(-c3ccccc3)c(O)c21 (configuration not stated) = 96.6
• N#Cc1ccccc1NC(=O)C(=O)C(C(=O)c1ccccc1-c1ccccc1)C1OC(=O)c2ccccc21 (configuration not stated) = 32.1

Form field TGI, entry C1CCC([PH+](C2CCCCC2)C2CCCCC2[PH+](C2CCCCC2)C2CCCCC2)CC1.[Au].[CH-]1CCCCC1C1CCCC[N-]1 (configuration not stated) : 1.52

---

Test system: HOP-62 NSCLC
test protocol: NCI tumour cell line growth inhibition, 48 h
readout type: TGI

• O=C1C2=C(c3ccccc31)C(c1ccc(Cl)cc1)N1C(=O)CCSC1=N2 (centres undefined) = > 100 µM

Form field TGI, entry O=C1CC(=O)N(C2CCCCC2)C(=O)N1c1ccccc1S(=O)(=O)Oc1ccccc1 : > 100 µM

---

System: A549 NSCLC
test protocol: NCI tumour cell line growth inhibition, 48 h
readout type: TGI

* O/N=C1\CCc2cc(-c3nc(C4CCNCC4)[nH]c3-c3ccncc3)ccc21 | > 25 µM
* CCCCOC(=O)C(=O)C(CC(C(=O)Cc1ccccc1)c1ccccc1)C(=O)C=C(C)C (stereo not given) | > 100 µM

Tested system A549 NSCLC; TGI recorded for CN(C)CCN1C(=O)CC[C@@]2(C)C1=CC[C@@H]1[C@@H]2CC[C@@]2(C)[C@H]1CC[C@]2(C)O was > 100 µM

Tested system A549 NSCLC; TGI recorded for C=C(c1ccccc1N)[C@@]1(O)C[C@H](/C(=C\C)CO)C[C@@H]1NCc1ccccc1 was > 100 µM

Tested system A549 NSCLC; TGI recorded for CC(NC1=CC(=O)c2ncccc2C1=O)C(O)c1ccccc1 (stereo not given) was 12.8 µM

---

Catalogue of TGI readings, one per entry.
Test system: NCI-H522 lung
test protocol: NCI tumour cell line growth inhibition, 48 h

- COc1ccccc1C(=O)/C=C/c1cc2cccc(OC)c2[nH]c1=O: 2.16 µM
- CC(C)Nc1[nH]c(C(=O)c2ccccc2)c(N)c1C(=S)Nc1ccccc1: > 100 µM
- CC[C@@H]1CN2CCC1C[C@@H]2C(O)c1ccnc2ccc(OCCN3CCN(CCOc4ccc5nccc(C(O)[C@@H]6C[C@@H]7CCN6C[C@@H]7CC)c5c4)CC3)cc12 (stereo partly specified): 61.8 µM
- CC(Cl)(/C=C/Cl)C(Cl)/C=C/C(Cl)(CCl)CBr (stereo unspecified): 3.33 µM

Form field TGI, entry CC(=O)Oc1c(C)n(CCCl)ccc1=O : > 100 µM

Form field TGI, entry CCCCOC(=O)C(=O)C(CC(C(=O)Cc1ccccc1)c1ccccc1)C(=O)C=C(C)C (stereo unspecified) : > 100 µM

Form field TGI, entry O=C1Nc2cccc3ncn(c23)C2=C1CCCC2 : > 100 µM

Form field TGI, entry CC(=O)c1ccc(Nc2cc(-n3ccnc3)nc3ccccc23)cc1 : > 100 µM

---

Tested on: OVCAR-8 ovarian
test protocol: NCI tumour cell line growth inhibition, 48 h
readout type: GI50

In the examples that follow, each entry is paired with its recorded GI50.
* CCOC(=O)/N=c1\ss/c(=N\C(=S)N(C)C)n1-c1ccccc1 | > 100 µM
* CC1(C)N=C(N)N=C(N)N1c1cccc(/C=C/C=C/c2cccc([N+](=O)[O-])c2)c1 | 13.8 µM
* OB([O][Hg][c]1ccccc1)[O][Hg][c]1ccccc1 | 0.522 µM

Form field GI50, entry O=c1c(Cl)nnc2sc3ccccc3n12 : 40.8 µM

Form field GI50, entry O=C(Nc1ccncc1)C(=O)c1cn(S(=O)(=O)c2ccc(Br)cc2)c2ccccc12 : 5.9 µM

Form field GI50, entry COc1cc[nH]c1/C=C1\C(=O)Nc2ccc(F)c(C#C[C@@H](O)[C@@H](N)[C@@H](C)O)c21 : 0.843 µM

---

Tested on: A498 renal
test protocol: NCI tumour cell line growth inhibition, 48 h
readout type: TGI (µM)
Please reply with the bare figure in µM and do not write the unit itself.

In the examples that follow, each entry is paired with its recorded TGI.
• CSc1c(C(=O)Nc2ccc(C)cc2)c(N)nn1-c1ccccc1 = 75.1
• C[C@H]1[C@H](OC(=O)CCC(=O)O)O[C@@H]2O[C@]3(C)CC[C@H]4[C@H](C)CC[C@@H]1[C@@]24OO3 = 33.8
• COc1cc2c(cc1OC)C(=O)C(Br)CC2 (stereo unspecified) = 23.6
• COc1cc(C2CC(c3cccc(Nc4ccncc4)c3)=NN2c2cc(Cl)cc(Cl)c2)cc(OC)c1OC (stereo unspecified) = 4.22
• COC1C=C(Nc2cccc(Cl)c2)C(=O)C1 (stereo unspecified) = 32.2

Form field TGI, entry COc1cc(O)c(C(=O)/C=C/c2ccccc2)c(OC)c1 : 16.5

Form field TGI, entry CC(NC1=CC(=O)c2ncccc2C1=O)C(O)c1ccccc1 (stereo unspecified) : 27.7

---

Catalogue of TGI readings, one per entry.
Tested on: A549 NSCLC
test protocol: NCI tumour cell line growth inhibition, 48 h

In the examples that follow, each entry is paired with its recorded TGI.
• CC12CC3CC/C(=N\O)C(C1)C3(N1CCOCC1)C/C2=N/O (stereo not given) = > 100 µM
• COc1cc[nH]c1/C=C1\C(=O)Nc2ccc(F)c(C#C[C@@H](O)[C@@H](N)[C@@H](C)O)c21 = 3.13 µM
• Cc1ccc(-c2sc(-c3ccc(C)cc3)c3c2C2CCC3C2)cc1 = > 50 µM
• COc1c(Cl)ccc(Cl)c1C(=O)NNC(=O)c1c(Cl)c(Cl)c(Cl)c(Cl)c1-c1nc2ccc(C(=O)c3ccccc3)cc2[nH]1 = > 100 µM

Note: attention shifts to another entry.
Form field TGI, entry CC12OC(C(=O)C13CC3)C1C(=O)c3ccccc3C(=O)C12 (stereo not given) : > 100 µM

---

U251 CNS: recorded GI50 for assorted molecules

- CC(=O)[CH-]C(=O)c1ccccc1.CC(=O)[CH-]C(=O)c1ccccc1.CCN(CC)CC[O-].CCN(CC)CC[O-].Cl.[Ti+4]: 25.2 µM
- Cc1ccc(S(=O)(=O)NC(CCC(=O)Nc2ccc(Cl)cc2)C(=O)Nc2ccc(Cl)cc2)cc1 (stereo not drawn): 0.574 µM
- O=[N+]([O-])c1ccc(N/N=C\c2cc(Cl)ccc2O)nc1: 0.51 µM

Tested system U251 CNS; GI50 recorded for COC(=O)[C@]12CC[C@@H](C)[C@H](C)[C@@H]1C1=CC[C@@H]3[C@@]4(C)CC(=O)[C@H](O)[C@@]5(C)COC(=C45)C[C@@]3(C)[C@]1(C)CC2 was 17.9 µM

Tested system U251 CNS; GI50 recorded for CCOC(=O)CCC(NC(=O)c1ccc(N=Cc2nc3cc(C(F)(F)F)ccc3nc2-c2ccccc2)cc1)C(=O)OCC (stereo not drawn) was 9.75 µM

Tested system U251 CNS; GI50 recorded for C[C@@H](c1ccc2nccn2c1)n1nnc2ncc(-c3cnn(C)c3)nc21 was > 100 µM

Tested system U251 CNS; GI50 recorded for COc1cccc(NC(=O)c2sc3nc4c(cc3c2N)CCCC4)c1 was 0.607 µM

Tested system U251 CNS; GI50 recorded for O=C(Nc1ccncc1)C(=O)c1cn(S(=O)(=O)c2ccc(Br)cc2)c2ccccc12 was 6.41 µM
